Hello, the source for this data is paper PMC11747885, in case you need it.

Collected Raw data [w Enyzm] values appear next to each entry.
- TARGET SYSTEM: Rlig1-AMP (Homo sapiens)
- Construct: made in house; host or cells: E. coli BL21 (DE3), pET15b-Rlig1
- Sequence (Q8N999 whole entry): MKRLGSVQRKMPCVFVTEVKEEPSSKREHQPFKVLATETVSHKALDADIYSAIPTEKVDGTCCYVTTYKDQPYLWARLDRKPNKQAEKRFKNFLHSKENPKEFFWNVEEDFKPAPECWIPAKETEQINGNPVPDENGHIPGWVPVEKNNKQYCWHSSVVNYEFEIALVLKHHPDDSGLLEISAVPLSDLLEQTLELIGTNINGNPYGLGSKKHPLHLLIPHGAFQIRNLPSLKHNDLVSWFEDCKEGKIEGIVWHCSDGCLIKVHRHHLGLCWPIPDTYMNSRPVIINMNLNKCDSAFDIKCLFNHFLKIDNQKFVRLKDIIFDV
- ASSAY COMMENT: FRET-based high-throughput screening of inhibitors for Rlig1-AMP
- Type: biochemical
- RECORDED CONDITIONS: HTS hits; with enzyme
Non-standard residues stand in square brackets, D forms with d. Residues, ends and D or L forms follow the SMILES beside them. *: point of attachment. Sta = CC(C)C[C@H](N)[C@@H](O)CC(=O)O; Isovaleryl = CC(C)CC(=O)*

COMPOUND	Raw data [w Enyzm]
Cl.NC(CO)(CO)CCc1ccc(Sc2cccc(OCc3ccccc3)c2)cc1Cl [Mocravimod (hydrochloride)]	8286
CCn1c(=O)/c(=C2\Sc3ccccc3N2C)s/c1=C\c1cccc[n+]1CC.[Cl-] [MKT-077]	657
CN(C)c1ccc(Nc2c3ccc(NC(=O)CCN4CCCC4)cc3nc3cc(NC(=O)CCN4CCCC4)ccc23)cc1.Cl.Cl.Cl [Braco-19 (trihydrochloride)]	2490
CN(C)CCOC(=O)COc1ccc(Cl)cc1.Cl [Meclofenoxate (hydrochloride)]	9480
CN(C)CCSSCCNC(=O)C1CCN(C(=O)CSc2ccc(Cl)cc2)CC1.O=C(O)C(F)(F)F [6H05 (TFA)]	8996
COc1c2c3c4c(c(OC)c(=O)c5c(O)cc(OC)c(c6c(OC)cc(O)c(c1=O)c63)c54)[C@@H](C(C)=O)[C@@](C)(O)C2 [Hypocrellin A]	1866
CC(/C=C/C=C(\C)C(=O)O[C@@H]1O[C@H](CO[C@@H]2O[C@H](CO)[C@@H](O)[C@H](O)[C@H]2O)[C@@H](O)[C@H](O)[C@H]1O)=C\C=C\C=C(C)\C=C\C=C(/C)C(=O)O[C@@H]1O[C@H](CO[C@@H]2O[C@H](CO)[C@@H](O)[C@H](O)[C@H]2O)[C@@H](O)[C@H](O)[C@H]1O [Crocin]	2370
OC[C@H]1O[C@@H](Oc2cc3c(O)cc(O)cc3[o+]c2-c2cc(O)c(O)c(O)c2)[C@H](O)[C@@H](O)[C@@H]1O.[Cl-] [Delphinidin 3-glucoside (chloride)]	3316
CCCCCCCCCCCCCCCC(=O)NCCCC[C@@H](N)C(=O)NCCCNCCCCNCCCN.Cl.Cl.Cl.Cl [AMXT-1501 tetrahydrochloride]	4942
Cc1cc(NCCCN(C)C)c2ccc3c(ccc4c(NCCCN(C)C)cc(C)nc43)c2n1.Cl.Cl.Cl.Cl [FGI-106 (tetrahydrochloride)]	7836
COc1nc(-c2cc(C)c(N[C@@H](C)c3ccc(F)cc3)nn2)ccc1-n1cnc(C)c1 [BPN-15606]	8858
Cc1cc(N=Nc2ccc3c(c2)CCC(=O)N3)c(N)cc1O [ZL0420]	1680
O=[N+]([O-])c1ccc(Nc2ccccc2-c2ccccc2)c2nonc12 [10074-G5]	1415
Cc1cc(Nc2ccc(NC(=O)c3ccc(Nc4ccnc5ccccc45)cc3)cc2)nc(N)n1 [Compound 1, SGI-1027, reference compound]	8456
O.O=C1C=CC[C@@H]2[C@H]3CCCN4CCC[C@@H](CN12)[C@@H]34 [Sophocarpine (monohydrate)]	8885
CC(=O)Nc1cc(Oc2ccc3c(C(=O)Nc4ccc(CN5CCN(C)CC5)c(C(F)(F)F)c4)cccc3c2)ncn1 [BGG463]	8276
N#Cc1cc(NS(=O)(=O)c2ccc(N)cc2)ccc1Oc1ccc(Cl)c(C(F)(F)F)c1 [Lp-PLA2-IN-3]	9448
COC1=CC(c2cc3ccccc3[nH]2)=N/C1=C\c1[nH]c(C)cc1C.CS(=O)(=O)O [Obatoclax (Mesylate)]	1010
C=C1C(=O)O[C@@H]2[C@H]3C(C)=CC[C@@]34O[C@@]4(C)CC[C@@H]12 [Arglabin]	8885
NCCNc1ccc(NCCN)c2c1C(=O)c1ccncc1C2=O.O=C(O)/C=C\C(=O)O.O=C(O)/C=C\C(=O)O [Pixantrone (dimaleate)]	4061
CCCC[C@@H](NC(=O)[C@@H](Cc1cn(C(=O)OC)c2ccccc12)NC(=O)[C@H](CC(C)(C)C)NC(=O)N1[C@H](C)CCC[C@@H]1C)C(=O)[O-].[Na+] [BQ-788]	8619
CC(C)CC(=O)N[C@H](C(=O)N[C@H](C(=O)N[C@@H](CC(C)C)[C@@H](O)CC(=O)N[C@@H](C)C(=O)N[C@@H](CC(C)C)[C@@H](O)CC(=O)O)C(C)C)C(C)C [Pepstatin] (Isovaleryl-VV[Sta]A[Sta]-OH)	8928
NC(=O)c1cnc2[nH]ccc2c1N[C@@H]1[C@@H]2CC3C[C@H]1C[C@@](O)(C3)C2 [Peficitinib]	8816
CC(C)(C)c1cc(/C=C(\C#N)C(N)=S)cc(C(C)(C)C)c1O [Tyrphostin AG 879]	2204
CCCc1cc(C(=O)N[C@H](Cc2ccc(-c3cccc(OC(F)(F)F)c3)nc2)C(=O)N[C@@H]2CCNC2)sc1C [AZ82]	8773
Cn1ncnc2c(=O)n(C)c(=O)nc1-2 [Toxoflavin]	16186
O=C(O)c1ccc(-c2ccc(N(c3ccc(-c4ccc(C(=O)O)cc4)cc3)c3ccc(-c4ccc(C(=O)O)cc4)cc3)cc2)cc1 [Antibacterial agent 18]	12110
